Test system: NCI-H460
Assay: NCI tumour cell line growth inhibition, 48 h
Calls of active or inactive are those of the source. No stated cut-off is given here; in the data, active = GI50 up to about 1.1 µM and inactive = higher.
Property name: GI50

Use the examples below as a reference point.
| Molecule | Result |
| --- | --- |
| OCCSCC(O)Cn1cnc2c(O)nc(Nc3ccccc3)nc21 (configuration not stated) | > 100 µM (inactive) |
| CS(=O)(=O)c1nc(Cl)c(Cl)c(C#N)c1Cl | 11.5 µM (inactive) |
| COC(=O)[C@H](Cc1ccccc1)NC(=O)[C@H](Cc1ccccc1)NC(=O)[C@@H]1CCCN1C(=O)N[C@H]1C2C=CC(C2)C1C(=O)N1CCC[C@H]1C(=O)N[C@@H](C)C(=O)N[C@H](C(=O)OC)C(C)C (some centres not stated) | > 100 µM (inactive) |
| CCCSc1nc(COC(=O)NC)c(COC(=O)NC)n1C | 39.7 µM (inactive) |
| Oc1cccc2ccc(Br)nc12 | > 100 µM (inactive) |

Req: Find the recorded GI50 belonging to Nc1nc(Br)nc2ncn(C3CC(O)C(CO)O3)c12 (configuration not stated) and report it.
Resp: 85.1 µM (inactive)

Req: Find the recorded GI50 belonging to CCCCCC/C=C1\CCC(CN2CCOCC2)C1=O (configuration not stated) and report it.
Resp: 38.7 µM (inactive)

Req: Find the recorded GI50 belonging to COc1cc(C2C3C=CC=C4CC=CC(=C43)C3CCC(=O)N32)cc(OC)c1OC (configuration not stated) and report it.
Resp: > 100 µM (inactive)

* * *

Tested on: SF-295
Experiment: NCI tumour cell line growth inhibition, 48 h
The source made the active and inactive calls. Cut-off read from the data, not from the text of the source: active = GI50 up to about 1.1 µM and inactive = higher.
# GI50 values compiled below

Use the examples below as a reference point.
| Compound | Assay target | Result |
| --- | --- | --- |
| COC(=O)[C@H](Cc1ccccc1)NC(=O)[C@H](Cc1ccccc1)NC(=O)[C@@H]1CCCN1C(=O)N[C@H]1C2C=CC(C2)C1C(=O)N1CCC[C@H]1C(=O)N[C@@H](C)C(=O)N[C@H](C(=O)OC)C(C)C (stereo partly drawn) | SF-295 | 30.8 µM (inactive) |
| COC(=O)[C@]12CC[C@H]3CN(C(=O)OCc4ccccc4)[C@H]([C@H]31)[C@H](C(=O)OCC[Si](C)(C)C)N2S(=O)(=O)c1ccc(C)cc1 | SF-295 | 29 µM (inactive) |

Consider now this further compound.
Req: Find the recorded GI50 belonging to Cc1cc2c(cc1C)N1C(Cl)=C3CCCCC3=C(C#N)C1N2 (stereo not drawn) and report it.
Resp: 20.4 µM (inactive)

* * *

Tested on: COLO 205
Experiment: NCI tumour cell line growth inhibition, 48 h
Active and inactive are the calls of the source. Cut-off read from the data, not from the text of the source: active = GI50 up to about 1.1 µM and inactive = higher.
Property name: GI50

Use the examples below as a reference point.
| Compound | Property name | Result |
| --- | --- | --- |
| CN1CCN([C@H]2C[C@H]3[C@@H]4CC=C5C[C@@H](O)CC[C@]5(C)[C@H]4CC[C@]3(C)C2=O)CC1 | GI50 | > 100 µM (inactive) |
| Cc1ccc(S(=O)(=O)n2cc(-c3cnc(N)c(Br)n3)c3ccccc32)cc1 | GI50 | 2.46 µM (inactive) |
| C=CC(C)(C)N[C@@H](C(=O)N1CCC[C@H]1c1nc(-c2nc(C(=O)OCC=C(C)C)c(C)o2)c(C)o1)C(C)C | GI50 | 22.4 µM (inactive) |
| COc1cc(CC(=O)c2cc3c(cc2-c2ccccc2)OCO3)cc(OC)c1OC | GI50 | 56.4 µM (inactive) |
| Cc1cc2c(cc1C)N1C(Cl)=C3CCCCC3=C(C#N)C1N2 (stereo not drawn) | GI50 | 16.5 µM (inactive) |
| O=c1[nH]c(N/N=C\C(=N/Nc2nc3ccccc3c(=O)[nH]2)C(O)C(O)C(O)CO)nc2ccccc12 (stereo not drawn) | GI50 | > 100 µM (inactive) |
| O=C1C=C2CC[C@H]3[C@@H]4CC[C@H](Oc5c6ccccc6nc6ccccc56)[C@H]4CC[C@@H]3[C@H]2CC1 | GI50 | 42.5 µM (inactive) |

Consider now this further compound.
Req: Find the recorded GI50 belonging to COc1cccc(NC(=O)CC(=O)NNCC(=O)Nc2nnc(-c3ccc(N(CCC#N)S(=O)(=O)c4ccccc4)cc3)s2)c1 and report it.
Resp: 53 µM (inactive)

The measurements presented in this section are drawn from ChEMBL document CHEMBL1201862.
